EC50 values, listed per item
- Test system: genotype 1b (Con-1) HCV replicon
- Test Protocol: HCV Replicon Luciferase Assay
- Format: cell-based
- Particulars: Hepatitis C virus, 72 h; Huh-7 cells, genotype 1b replicon, Renilla luciferase, 3 days incubation; read-out: EC50 (uM) 1b
Observation Type: EC50 (µM)

Molecule: CCN(c1cc2oc(-c3ccc(F)cc3)c(C(=O)NC)c2cc1-c1cccc(C(=O)NC(C)(C#N)C2CC2)c1)S(C)(=O)=O (stereo not shown) [Compound 2009]
Observation Type: EC50
Value Measured: 0.0032

Molecule: CCN(c1cc2oc(-c3ccc(F)cc3)c(C(=O)NC)c2cc1-c1cccc(C(=O)NC(c2cccnc2)C(F)(F)F)c1)S(C)(=O)=O (stereo not shown) [Compound 2004]
Observation Type: EC50
Value Measured: 0.0096

Molecule: CCNc1cc2oc(-c3ccc(F)cc3)c(C(=O)NC)c2cc1-c1cccc(C(=O)NC(C2CC2)C(F)(F)F)c1 (stereo not shown) [Compound 1011]
Observation Type: EC50
Value Measured: 0.0128

Molecule: CCN(CC)c1cc2oc(-c3ccc(F)cc3)c(C(=O)NC)c2cc1-c1cccc(C(=O)N[C@]2(C(=O)O)C[C@@H]2CO)c1 [Compound 6004]
Observation Type: EC50
Value Measured: 0.946

Molecule: CCNc1cc2oc(-c3ccc(F)cc3)c(C(=O)NC)c2cc1-c1cccc(C(=O)NC(C#N)c2ccccc2)c1 (stereo not shown) [Compound 1006]
Observation Type: EC50
Value Measured: 0.0162

Molecule: CCNc1cc2oc(-c3ccc(F)cc3)c(C(=O)NC)c2cc1-c1cccc(C(=O)NCC(F)(F)c2ccccc2)c1 [Compound 1001]
Observation Type: EC50
Value Measured: 0.0486

Molecule: CNC(=O)c1c(-c2ccc(F)cc2)oc2cc(N(CCCF)S(C)(=O)=O)c(-c3cccc(C(=O)NC(C4CC4)C(F)(F)F)c3)cc12 (stereo not shown) [Compound 5001]
Observation Type: EC50
Value Measured: 0.0229
